Target: Aβ42 (Homo sapiens)
Sequence (P05067 672-713): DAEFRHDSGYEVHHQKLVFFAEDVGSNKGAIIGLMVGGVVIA
Test: Th-T (thioflavin-T) assay of Aβ42 aggregation
Assay type: biochemical
Conditions: compound at 20; reading M48 of time course

compound	Th-T fluorescence, mean of three wells
C=C1CCC2C(C)(CCC=C(C)C)C(O)CCC2(C)C1Cc1c(OC)oc(CO)c(C)c1=O (centres unmarked)	2.1654
C=C1CCC2C(C)(CCC=C(C)C)C(O)CCC2(C)C1Cc1c(OC)oc(CO)c(C(=O)OC)c1=O (centres unmarked)	0.6248
C=C1CCC2C(C)(CCC=C(C)C)C(O)CCC2(C)C1Cc1c(OC)oc(C)c(C(=O)OC)c1=O (centres unmarked)	2.161
C=C1CC[C@@H]2[C@](C)(CC[C@H]3O[C@H](C=C(C)C)C[C@@]23C)[C@@H]1Cc1c(OC)oc(CO)c(C(=O)OC)c1=O	0.2155
C=C1CC[C@@H]2[C@](C)(CC[C@H]3O[C@H](C=C(C)C)C[C@@]23C)[C@@H]1Cc1c(OC)oc(CO)c(C)c1=O	3.449

Source of measurements: paper PMC7156458
